// reported minimum inhibitory concentration for each item listed
System: Pasteurella multocida
Experiment: minimum inhibitory concentration (MIC)
Conditions: isolate (source animal id): 276
Numbers only; they are read as µg/mL.

Just so you know, measured minimum inhibitory concentration for CC1(C)S[C@@H]2[C@H](NC(=O)Cc3ccccc3)C(=O)N2[C@H]1C(=O)O [Penicillin] came out at 0.25

minimum inhibitory concentration in this record for CS(=O)(=O)c1ccc([C@@H](O)[C@@H](CF)NC(=O)C(Cl)Cl)cc1 [Florfenicol] : 0.5

* * *

Tested on: Mannheimia haemolytica
Experiment: minimum inhibitory concentration (MIC)
Settings: isolate (source animal id): 180
Assay endpoint: minimum inhibitory concentration

Consider the following illustrative entries.
Compound	Assay endpoint	Measured result
CO/N=C(\C(=O)N[C@@H]1C(=O)N2C(C(=O)O)=C(CSC(=O)c3ccco3)CS[C@H]12)c1csc(N)n1 [Ceftiofur]	minimum inhibitory concentration	≤ 0.25 µg/mL
CC[C@H]1OC(=O)C[C@@H](O)[C@H](C)[C@@H](O[C@@H]2O[C@H](C)[C@@H](O[C@H]3C[C@@](C)(O)[C@@H](O)[C@H](C)O3)[C@H](N(C)C)[C@H]2O)[C@@H](CC=O)C[C@@H](C)C(=O)/C=C/C(C)=C/[C@@H]1CO[C@@H]1O[C@H](C)[C@@H](O)[C@@H](OC)[C@H]1OC [Tylosin]	minimum inhibitory concentration	> 32 µg/mL
CCN1CCN(c2cc3c(cc2F)c(=O)c(C(=O)O)cn3C2CC2)CC1 [Enrofloxacin]	minimum inhibitory concentration	≤ 0.12 µg/mL

CC1(C)S[C@@H]2[C@H](NC(=O)[C@H](N)c3ccccc3)C(=O)N2[C@H]1C(=O)O [Ampicillin] has a reported minimum inhibitory concentration of > 16 µg/mL

The value of minimum inhibitory concentration measured for the compound CCCNC[C@]1(O)[C@H](C)O[C@@H](O[C@H]2[C@H](C)[C@@H](O[C@@H]3O[C@H](C)C[C@H](N(C)C)[C@H]3O)[C@](C)(O)C[C@@H](C)CN[C@H](C)[C@@H](O)[C@](C)(O)[C@@H](CC)OC(=O)[C@@H]2C)C[C@@]1(C)OC [Tulathromycin] turned out to be ≤ 8 µg/mL

Record CNC(C)C1CCC(N)C(OC2C(N)CC(N)C(OC3OCC(C)(O)C(NC)C3O)C2O)O1 (stereo unspecified) [Gentamicin] . Reported minimum inhibitory concentration: 2 µg/mL
